Test system: A375 multi-cell spheroids with HUVEC/MSC, viability
Test: Anticancer human tumor A375 cell line growth inhibition [GQUAD];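 also: spheroids exposed to compounds for seven days before readout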
Details: second compound 3.16 µM; first compound 0.00316 µM; hits give low values
Text: DNA G-quadruplex Stabilizer Agents in Combinations in Complex Spheroids A high-throughput screen of multi-cell type tumor spheroids was designed to identify active combinations of DNA G-quadruplex stabilizer agents and targeted small molecules. […] Compounds. […] If the clinical Cmax for an agent had not been determined, the highest concentration tested was 10 microM. […]
Response field label: string, one of true (viability, T/C strictly below 30%) or false.

compound: CCc1c2c(nc3ccc(O)cc13)-c1cc3c(c(=O)n1C2)COC(=O)[C@]3(O)CC + CN(C)c1ccc(Nc2c3ccc(NC(=O)CCN4CCCC4)cc3nc3cc(NC(=O)CCN4CCCC4)ccc23)cc1
class_assignment: true

compound: Cn1ncnc1[C@H]1c2n[nH]c(=O)c3cc(F)cc(c23)N[C@@H]1c1ccc(F)cc1 + Cc1cnc(CNC(=O)c2c(=O)c3ccc(N4CCCN(C)CC4)nc3n3c2sc2ccccc23)cn1
class_assignment: false

compound: Cc1[nH]c2ccccc2c1CCNCc1ccc(/C=C/C(=O)NO)cc1 + Cc1[nH]c2ccc(F)cc2c1-c1nc2c3cccnc3c3ncccc3c2[nH]1
class_assignment: false

The reported numbers originate from PubChem BioAssay AID2060485.
